Exercise: state measured remaining activity at 10 µM for each of the compounds provided.
- SUBJECT_OF_TEST: STAT3(Y640F)-nonphosphorylated (Homo sapiens, UniProt P40763, Y640F)
- Construct: made in house; host or cells: HEK293 (transient transfection), unpurified extract, dephosphorylated by endogenous phosphatases
- Sequence (P40763 whole entry Y640F): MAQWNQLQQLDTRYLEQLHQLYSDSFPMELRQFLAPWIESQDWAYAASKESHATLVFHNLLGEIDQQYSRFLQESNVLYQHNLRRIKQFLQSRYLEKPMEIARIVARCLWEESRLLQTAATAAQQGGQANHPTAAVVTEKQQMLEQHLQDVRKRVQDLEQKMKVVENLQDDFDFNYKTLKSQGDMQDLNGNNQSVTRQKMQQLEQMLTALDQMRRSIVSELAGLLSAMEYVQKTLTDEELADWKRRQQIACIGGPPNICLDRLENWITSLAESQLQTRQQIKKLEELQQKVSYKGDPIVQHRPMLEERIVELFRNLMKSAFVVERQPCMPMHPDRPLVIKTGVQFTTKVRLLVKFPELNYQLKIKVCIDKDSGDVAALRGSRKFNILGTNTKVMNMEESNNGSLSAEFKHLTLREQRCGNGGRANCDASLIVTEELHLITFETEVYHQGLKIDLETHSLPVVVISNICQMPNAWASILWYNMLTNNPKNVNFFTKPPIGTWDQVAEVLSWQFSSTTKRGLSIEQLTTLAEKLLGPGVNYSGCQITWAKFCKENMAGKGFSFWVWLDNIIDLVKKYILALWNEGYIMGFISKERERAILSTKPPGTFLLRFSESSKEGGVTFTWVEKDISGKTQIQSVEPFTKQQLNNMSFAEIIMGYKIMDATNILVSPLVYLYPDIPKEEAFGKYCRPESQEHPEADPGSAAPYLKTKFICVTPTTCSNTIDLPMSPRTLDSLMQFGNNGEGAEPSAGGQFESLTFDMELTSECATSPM
- PROTOCOL_DESCRIPTION: biochemical
- Assay type: binding
- TEST_CONTEXT: primary screen, 10 μM; read-out: percent of DMSO vehicle control

Prompt: Using the record for C/C(=C\C(=O)N[C@H](C(=O)N1CCC[C@H]1C(=O)N(c1ccccc1)c1ccc(I)cc1)C(C)(C)C)c1ccc(OP(=O)(O)O)cc1 [STAT6-IN-1] , report its remaining activity at 10 µM.
Completion: 0%

Prompt: Using the record for CC(C)(C)[C@H](NC(=O)/C=C/c1ccc(OP(=O)(O)O)cc1)C(=O)N1CCC[C@H]1C(=O)N(c1ccccc1)c1ccc(I)cc1 [STAT6-IN-3] , report its remaining activity at 10 µM.
Completion: 2.4%

Prompt: Using the record for O=C(CCl)Nc1cccc(CNC(=O)[C@H](Cc2ccc(OP(=O)(O)O)cc2)NC(=O)Cc2ccc(F)cc2)c1 [MN551] , report its remaining activity at 10 µM.
Completion: 49%

Prompt: Using the record for O=C(COc1ccc2cc(C(=O)Nc3ccccc3)ccc2c1)NCc1ccc(OP(=O)(O)O)c(OP(=O)(O)O)c1 [Stafib-1] , report its remaining activity at 10 µM.
Completion: 75.3%

###

Exercise: state measured remaining activity at 10 µM for each of the compounds provided.
- SUBJECT_OF_TEST: DAPP1 (Homo sapiens)
- Construct: the DNA-tagged SH2 domain concentrations used in this study were <0.1 nM; made in house; host or cells: HEK293 (transient transfection; unpurified extract)
- Sequence (Q9UN19 35-129 limits assumed): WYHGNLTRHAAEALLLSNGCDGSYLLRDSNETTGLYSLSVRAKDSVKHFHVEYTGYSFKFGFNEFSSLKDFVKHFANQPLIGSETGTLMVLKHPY
- PROTOCOL_DESCRIPTION: biochemical
- Type: binding
- TEST_CONTEXT: primary screen, 10 μM; read-out: percent of DMSO vehicle control
Only the number, expressed in %, is required.

Prompt: Using the record for CC(C)(C)[C@H](NC(=O)/C=C/c1ccc(OP(=O)(O)O)cc1)C(=O)N1CCC[C@H]1C(=O)N(c1ccccc1)c1ccc(I)cc1 , report its remaining activity at 10 µM.
Completion: 58.9

Prompt: Using the record for O=C(COc1ccc2cc(C(=O)Nc3ccccc3)ccc2c1)NCc1ccc(OP(=O)(O)O)c(OP(=O)(O)O)c1 , report its remaining activity at 10 µM.
Completion: 100

Prompt: Using the record for C/C(=C\C(=O)N[C@H](C(=O)N1CCC[C@H]1C(=O)N(c1ccccc1)c1ccc(I)cc1)C(C)(C)C)c1ccc(OP(=O)(O)O)cc1 , report its remaining activity at 10 µM.
Completion: 41.1

Prompt: Using the record for O=C(CCl)Nc1cccc(CNC(=O)[C@H](Cc2ccc(OP(=O)(O)O)cc2)NC(=O)Cc2ccc(F)cc2)c1 , report its remaining activity at 10 µM.
Completion: 81.2

###

- SUBJECT_OF_TEST: CBLB (Homo sapiens)
- Construct: the DNA-tagged SH2 domain concentrations used in this study were <0.1 nM; made in house; host or cells: HEK293 (transient transfection; unpurified extract)
- Sequence (Q13191 241-343 limits assumed): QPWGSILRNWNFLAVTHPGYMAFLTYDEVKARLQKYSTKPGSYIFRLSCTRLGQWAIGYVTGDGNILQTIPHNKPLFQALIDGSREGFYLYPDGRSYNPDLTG
- PROTOCOL_DESCRIPTION: biochemical
- Assay type: binding
- TEST_CONTEXT: primary screen, 10 μM
Non-standard residues stand in square brackets, D forms with d. Residues, ends and D or L forms follow the SMILES beside them. *: point of attachment. pY = N[C@@H](Cc1ccc(OP(=O)(O)O)cc1)C(=O)O; Caffeoyl = O=C(/C=C/c1ccc(O)c(O)c1)*
Exercise: state measured percent of DMSO vehicle control for each of the molecules provided.
Only the number, expressed in %, is required.

Prompt: Using the record for CC[C@H](C)[C@H](NC(=O)[C@H](CCC(=O)O)NC(=O)[C@H](CCC(=O)O)NC(=O)[C@H](Cc1ccc(OP(=O)(O)O)cc1)NC(=O)/C=C/c1ccc(O)c(O)c1)C(=O)N[C@@H](CCC(=O)O)C(=O)O [Caffeic acid-pYEEIE] (Caffeoyl-[pY]EEIE-OH) , report its percent of DMSO vehicle control.
Completion: 32.7

Prompt: Using the record for CC(=O)N[C@@H](Cc1ccc(CP(=O)(O)O)cc1)C(=O)NC1(C(=O)N[C@@H](CC(N)=O)C(=O)NCCCc2c(O)ccc3ccccc23)CCCCC1 [CGP78850] , report its percent of DMSO vehicle control.
Completion: 122.1

Prompt: Using the record for CC[C@H](C)[C@H](NC(=O)[C@H](CCC(=O)O)NC(=O)[C@H](CCC(=O)O)NC(=O)[C@H](Cc1ccc(OP(=O)(O)O)cc1)NC(C)=O)C(=O)N[C@@H](CCC(=O)O)C(N)=O [Ac-pYEEIE-NH2] (Ac-[pY]EEIE-NH2) , report its percent of DMSO vehicle control.
Completion: 116.1

Prompt: Using the record for CC(C)(C)[C@H](NC(=O)/C=C/c1ccc(OP(=O)(O)O)cc1)C(=O)N1CCC[C@H]1C(=O)N(c1ccccc1)c1ccc(I)cc1 [STAT6-IN-3] , report its percent of DMSO vehicle control.
Completion: 69.0

###

- SUBJECT_OF_TEST: SOCS7 (Homo sapiens)
- Construct: made in house; host or cells: HEK293 (transient transfection), unpurified extract
- Sequence (O14512 whole entry): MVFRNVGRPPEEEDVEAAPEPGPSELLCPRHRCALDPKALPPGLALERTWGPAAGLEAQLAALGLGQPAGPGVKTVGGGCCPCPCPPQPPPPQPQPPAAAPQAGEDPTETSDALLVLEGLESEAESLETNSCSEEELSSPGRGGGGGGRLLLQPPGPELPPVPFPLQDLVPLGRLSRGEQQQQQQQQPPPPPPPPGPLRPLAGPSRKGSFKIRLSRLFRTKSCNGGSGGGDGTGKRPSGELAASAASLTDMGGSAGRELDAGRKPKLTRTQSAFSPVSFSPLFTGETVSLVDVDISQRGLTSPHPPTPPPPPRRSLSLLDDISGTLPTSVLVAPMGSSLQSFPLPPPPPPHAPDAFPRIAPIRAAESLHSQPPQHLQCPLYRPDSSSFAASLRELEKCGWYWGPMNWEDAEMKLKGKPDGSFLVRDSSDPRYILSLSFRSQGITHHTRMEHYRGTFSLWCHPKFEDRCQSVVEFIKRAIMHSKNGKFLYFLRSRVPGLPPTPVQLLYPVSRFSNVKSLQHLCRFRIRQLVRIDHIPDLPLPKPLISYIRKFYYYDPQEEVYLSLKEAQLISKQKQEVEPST
- PROTOCOL_DESCRIPTION: biochemical
- Format: binding
- TEST_CONTEXT: dose-response; read-out: KD
RECORDED_METRIC: pKd
pKd here: minus log base 10 of the concentration, concentration in moles per litre.

Prompt: Using the record for O=C(CCl)Nc1cccc(CNC(=O)[C@H](Cc2ccc(OP(=O)(O)O)cc2)NC(=O)Cc2ccc(F)cc2)c1 [MN551] , report its pKd.
Completion: 5.09

###

Exercise: state measured remaining activity at 10 µM for each of the molecules provided.
- SUBJECT_OF_TEST: VAV2 (Homo sapiens)
- Construct: made in house; host or cells: HEK293 (transient transfection), unpurified extract
- Sequence (P52735 whole entry): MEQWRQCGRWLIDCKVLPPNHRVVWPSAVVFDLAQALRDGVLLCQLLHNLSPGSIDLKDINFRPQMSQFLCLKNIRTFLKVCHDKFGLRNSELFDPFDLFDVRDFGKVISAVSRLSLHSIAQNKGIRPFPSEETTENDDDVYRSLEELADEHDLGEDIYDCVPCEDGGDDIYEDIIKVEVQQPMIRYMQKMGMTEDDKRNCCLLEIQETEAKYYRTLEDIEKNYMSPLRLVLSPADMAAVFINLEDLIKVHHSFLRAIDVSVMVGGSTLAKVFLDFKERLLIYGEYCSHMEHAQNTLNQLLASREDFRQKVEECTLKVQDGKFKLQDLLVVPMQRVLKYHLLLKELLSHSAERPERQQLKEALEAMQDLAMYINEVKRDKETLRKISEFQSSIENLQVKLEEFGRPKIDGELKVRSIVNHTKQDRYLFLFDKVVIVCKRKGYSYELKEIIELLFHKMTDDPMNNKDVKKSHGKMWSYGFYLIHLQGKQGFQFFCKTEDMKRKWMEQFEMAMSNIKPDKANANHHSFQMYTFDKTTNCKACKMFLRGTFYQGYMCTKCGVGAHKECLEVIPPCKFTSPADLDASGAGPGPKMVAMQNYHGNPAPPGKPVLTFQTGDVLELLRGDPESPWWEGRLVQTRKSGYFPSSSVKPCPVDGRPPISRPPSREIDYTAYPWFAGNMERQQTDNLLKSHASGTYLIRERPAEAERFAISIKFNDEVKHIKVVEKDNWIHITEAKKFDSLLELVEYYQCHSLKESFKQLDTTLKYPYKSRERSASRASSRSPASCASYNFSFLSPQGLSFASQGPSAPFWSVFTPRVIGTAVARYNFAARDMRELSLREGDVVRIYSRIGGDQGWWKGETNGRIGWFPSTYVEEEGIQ
- PROTOCOL_DESCRIPTION: biochemical
- Format: binding
- TEST_CONTEXT: primary screen, 10 μM; read-out: percent of DMSO vehicle control
Please give the number followed by its unit.

Prompt: Using the record for C/C(=C\C(=O)N[C@H](C(=O)N1CCC[C@H]1C(=O)N(c1ccccc1)c1ccc(I)cc1)C(C)(C)C)c1ccc(OP(=O)(O)O)cc1 [STAT6-IN-1] , report its remaining activity at 10 µM.
Completion: 79.9%

Prompt: Using the record for O=C(COc1ccc2cc(C(=O)Nc3ccccc3)ccc2c1)NCc1ccc(OP(=O)(O)O)c(OP(=O)(O)O)c1 [Stafib-1] , report its remaining activity at 10 µM.
Completion: 95.8%

Prompt: Using the record for O=C(CCl)Nc1cccc(CNC(=O)[C@H](Cc2ccc(OP(=O)(O)O)cc2)NC(=O)Cc2ccc(F)cc2)c1 [MN551] , report its remaining activity at 10 µM.
Completion: 77.8%

Prompt: Using the record for CC(C)(C)[C@H](NC(=O)/C=C/c1ccc(OP(=O)(O)O)cc1)C(=O)N1CCC[C@H]1C(=O)N(c1ccccc1)c1ccc(I)cc1 [STAT6-IN-3] , report its remaining activity at 10 µM.
Completion: 87.5%

###

Exercise: state measured remaining activity at 10 µM for each of the compounds provided.
- SUBJECT_OF_TEST: SHF (Homo sapiens, UniProt Q7M4L6)
- Construct: made in house; host or cells: HEK293 (transient transfection), unpurified extract
- Sequence (Q7M4L6 1-423): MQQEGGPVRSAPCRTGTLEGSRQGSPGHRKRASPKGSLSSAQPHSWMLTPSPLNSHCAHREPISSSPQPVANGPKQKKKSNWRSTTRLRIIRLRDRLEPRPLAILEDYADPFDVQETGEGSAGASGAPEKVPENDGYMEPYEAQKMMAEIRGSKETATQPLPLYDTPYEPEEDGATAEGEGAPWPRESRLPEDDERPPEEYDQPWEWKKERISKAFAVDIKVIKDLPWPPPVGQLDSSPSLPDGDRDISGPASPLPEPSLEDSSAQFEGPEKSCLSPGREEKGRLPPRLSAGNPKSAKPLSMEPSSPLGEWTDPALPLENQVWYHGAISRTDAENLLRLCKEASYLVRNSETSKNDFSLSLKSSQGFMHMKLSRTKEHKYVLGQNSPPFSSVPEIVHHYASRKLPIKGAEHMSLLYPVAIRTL
- PROTOCOL_DESCRIPTION: biochemical
- Type: binding
- TEST_CONTEXT: read-out: percent of DMSO vehicle control
Non-standard residues stand in square brackets, D forms with d. Residues, ends and D or L forms follow the SMILES beside them. *: point of attachment. pY = N[C@@H](Cc1ccc(OP(=O)(O)O)cc1)C(=O)O; Caffeoyl = O=C(/C=C/c1ccc(O)c(O)c1)*
Only the number, expressed in %, is required.

Prompt: Using the record for CC(=O)N[C@@H](Cc1ccc(CP(=O)(O)O)cc1)C(=O)NC1(C(=O)N[C@@H](CC(N)=O)C(=O)NCCCc2c(O)ccc3ccccc23)CCCCC1 , report its remaining activity at 10 µM.
Completion: 77.1

Prompt: Using the record for CC[C@H](C)[C@H](NC(=O)[C@H](CCC(=O)O)NC(=O)[C@H](CCC(=O)O)NC(=O)[C@H](Cc1ccc(OP(=O)(O)O)cc1)NC(=O)/C=C/c1ccc(O)c(O)c1)C(=O)N[C@@H](CCC(=O)O)C(=O)O [Caffeic acid-pYEEIE] (Caffeoyl-[pY]EEIE-OH) , report its remaining activity at 10 µM.
Completion: 50.6

Prompt: Using the record for CC(=O)N1CC[C@H]2CC[C@@H](C(=O)N[C@@H](CCC(N)=O)C(=O)NC(c3ccccc3)c3ccccc3)N2C(=O)[C@@H](NC(=O)c2cc3cc(C(F)(F)P(=O)(O)O)ccc3[nH]2)C1 , report its remaining activity at 10 µM.
Completion: 78.9

Prompt: Using the record for NC(=O)CC[C@H](NC(=O)[C@@H]1CC[C@@H]2CCN(C(=O)CCCCCC#Cc3cccc4c3CN(C3CCC(=O)NC3=O)C4=O)C[C@H](NC(=O)c3cc4cc(C(F)(F)P(=O)(O)O)ccc4[nH]3)C(=O)N21)C(=O)NC(c1ccccc1)c1ccccc1 (stereo partly shown) , report its remaining activity at 10 µM.
Completion: 100
